Reported log10 EC50 values for a set of binders
Molecular target: T1, human CD47 (recombinant protein, construct not stated) (human, UniProt Q08722 19-141)
T1 construct: also called hCD47; human CD47 protein
Experiment: ELISA on coated human CD47
Description: 96-well plates (Nunc, Denmark) were coated with 1 μg/ml of human CD47 or VISTA protein in PBS, for 1 h at room temperature. Plates were blocked for 1 h at room temperature with 1% BSA in Tris buffer saline containing 0.05% Tween 20 (TBS-T). The test antigen-binding molecules were added at concentrations ranging from to 0.002 μg/ml to 200 μg/ml, and the plates were incubated at room temperature for 1 h. […] The reaction was stopped after 3.5 min with 2M […], and OD was measured at 450 nm.
The common logarithm of EC50 in ng/mL is what is listed.

Would you please look over these solved cases?
{"binder": "11A1H3-IgG1 (antibody, V domains shown, Humanised version of clone 1-1-A1, IgG1/kappa; also called 1A11H3) VH: QVQLVQSGAEVKKPGASVKVSCKASGYTFTNYVMHWVRQAPGQGLEWMGYINPYNDGTKSNEKFQGRVTLTSDTSTSTAYMELSSLRSEDTAVYYCASGGYYTMDYWGQGTLVASTK VL: DVVMTQSPLSLPVTLGQPASISCRSSQHLEYSNGYSYLHWYQQRPGQSPRLLIYKISNRFSGVPDRFSGSGSGTDFTLKISRVEAEDVGVYYCSQSTHVPYTFGGGTKVEIKR", "log10 EC50": -0.66}
{"binder": "anti-CD47 clone 1-1-A1_BM IgG1 (antibody, V domains shown) VH: QVQLQQSGPDLKKPGASVKVSCKVSGYTFTNYVIHWVRQKPGQGLEWMGYINPYNDGTKSNEKFKGKATLTSDKSSTSAYMELSSLTSEDTAVYYCASGGYYTMDYWGQGTSVTVSS VL: DVVMTQTPLSLPVTLGDQASISCRSSQHLEYSNGYSYLHWYQQRPGQSPQLLIYKISNRFSGVPDRFSGSGSGTDFTLKISRVEAEDLGVYYCSQSTHVPYTFGGGTKLEIKR", "log10 EC50": 0.26}
{"binder": "11A1H9-IgG1 (antibody, V domains shown, Humanised version of clone 1-1-A1, IgG1/kappa; also called 1A11H9) VH: QVQLVQSGAEVKKPGASVKVSCKASGYTFTGYVIHWVRQAPGQGLEWMGYINPYNGGTNYAQKFKGRVTLTSDTSTTTAYMELSRLRSEDTAVYYCASGGYYTMDYWGQGTLVTVSS VL: DVVMTQSPLSLPVTLGQPASISCRSSQHLEYSTGYSYLHWYQQRPGQSPRLLIYKVSNRDSGVPDRFSGSGSGTDFTLKISRVEAEDVGVYYCSQSTHVPYTFGGGTKVEIKR", "log10 EC50": 4.37}

Entry under review: 11A1H7-IgG1 (antibody, V domains shown, Humanised version of clone 1-1-A1, IgG1/kappa; also called 1A11H7) VH: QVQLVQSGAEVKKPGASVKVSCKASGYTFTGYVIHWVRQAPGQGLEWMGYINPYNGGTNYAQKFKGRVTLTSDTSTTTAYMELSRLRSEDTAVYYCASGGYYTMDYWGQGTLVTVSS VL: DVVMTQSPLSLPVTLGQPASISCRSSQHLEYSQGYSYLHWYQQRPGQSPRLLIYKVSNRDSGVPDRFSGSGSGTDFTLKISRVEAEDVGVYYCSQSTHVPYTFGGGTKVEIKR . Reported log10 EC50?
4.57

Follow-up entry: 11A1H11-IgG1 (antibody, V domains shown, Humanised version of clone 1-1-A1, IgG1/kappa; also called 1A11H11) VH: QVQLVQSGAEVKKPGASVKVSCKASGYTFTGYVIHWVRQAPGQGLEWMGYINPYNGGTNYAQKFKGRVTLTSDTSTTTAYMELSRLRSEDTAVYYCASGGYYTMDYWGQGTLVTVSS VL: DVVMTQSPLSLPVTLGQPASISCRSSQHLEYSNGYSYLHWYQQRPGQSPRLLIYKISNRFSGVPDRFSGSGSGTDFTLKISRVEAEDVGVYYCSQGTHVPYTFGGGTKVEIKR
0.32

Follow-up entry: 11A1H4-IgG1 (antibody, V domains shown, Humanised version of clone 1-1-A1, IgG1/kappa; also called 1A11H4) VH: QVQLVQSGAEVKKPGASVKVSCKASGYTFTNYVIHWVRQAPGQGLEWMGYINPYNDGTKYNQKFKGRVTLTSDTSTTTAYMELSRLRSDDTAVYYCASGGYYTMDYWGQGTLVASTK VL: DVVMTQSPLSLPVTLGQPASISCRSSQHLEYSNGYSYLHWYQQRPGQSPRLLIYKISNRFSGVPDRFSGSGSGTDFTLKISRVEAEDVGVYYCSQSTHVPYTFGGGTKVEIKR
-0.74
